Taken from ChEMBL document CHEMBL2390840.

# tgt: 5-hydroxytryptamine receptor 2A (Homo sapiens, UniProt P28223)
# Sequence (P28223 whole entry): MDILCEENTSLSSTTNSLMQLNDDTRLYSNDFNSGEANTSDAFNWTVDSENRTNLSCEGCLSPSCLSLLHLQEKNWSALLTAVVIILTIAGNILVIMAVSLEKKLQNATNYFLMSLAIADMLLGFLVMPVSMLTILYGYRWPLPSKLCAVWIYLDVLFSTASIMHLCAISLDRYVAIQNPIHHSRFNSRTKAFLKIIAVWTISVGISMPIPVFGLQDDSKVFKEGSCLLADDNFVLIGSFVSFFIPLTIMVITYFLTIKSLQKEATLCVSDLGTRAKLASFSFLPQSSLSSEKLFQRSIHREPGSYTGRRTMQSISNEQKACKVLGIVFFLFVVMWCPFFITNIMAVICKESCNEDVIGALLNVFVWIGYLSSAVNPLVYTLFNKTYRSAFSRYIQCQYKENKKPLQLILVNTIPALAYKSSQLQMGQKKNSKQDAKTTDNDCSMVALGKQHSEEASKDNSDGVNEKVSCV
# protocol notes: Displacement of [3H]Ketanserin from human recombinant 5-HT2A receptor expressed in HEK293T cells after 1 to […] by scintillation counting analysis
pKi: −log10 of the molar value.

>  <chemical string>
C=CCN(CC=C)CCc1c[nH]c2ccc(OC)cc12

>  <tgt>
5-hydroxytryptamine receptor 2A (Homo sapiens, UniProt P28223)

>  <pKi>
6.26

$$$$

---

Entries and their pKi values follow.
# tgt: UniProt:P11229
# Sequence (P11229 whole entry): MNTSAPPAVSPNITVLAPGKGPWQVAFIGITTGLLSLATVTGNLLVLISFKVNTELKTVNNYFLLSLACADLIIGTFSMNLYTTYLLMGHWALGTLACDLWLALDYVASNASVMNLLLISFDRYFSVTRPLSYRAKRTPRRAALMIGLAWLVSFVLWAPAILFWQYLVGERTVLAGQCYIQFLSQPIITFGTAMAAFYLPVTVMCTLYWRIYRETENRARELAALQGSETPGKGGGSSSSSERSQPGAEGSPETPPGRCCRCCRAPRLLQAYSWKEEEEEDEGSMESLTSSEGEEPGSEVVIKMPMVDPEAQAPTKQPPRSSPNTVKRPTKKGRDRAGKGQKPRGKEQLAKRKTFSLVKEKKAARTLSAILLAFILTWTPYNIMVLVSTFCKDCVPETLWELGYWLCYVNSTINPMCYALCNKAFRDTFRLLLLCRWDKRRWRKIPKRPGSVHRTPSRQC
# protocol notes: Displacement of [3H]QNB from human recombinant muscarinic M1 receptor expressed in CHO cells after 1 to […] by scintillation counting analysis
pKi: −log10 of the molar value.

>  <molecule>
CC(N)Cc1c[nH]c2ccccc12 (configuration not stated)

>  <pKi>
< 5.00

$$$$
>  <molecule>
C=CCN(CC=C)CCc1c[nH]c2ccc(OC)cc12

>  <pKi>
< 5.00

$$$$

---

# tgt: Alpha-2C adrenergic receptor (Homo sapiens, UniProt P18825)
# Sequence (P18825 whole entry): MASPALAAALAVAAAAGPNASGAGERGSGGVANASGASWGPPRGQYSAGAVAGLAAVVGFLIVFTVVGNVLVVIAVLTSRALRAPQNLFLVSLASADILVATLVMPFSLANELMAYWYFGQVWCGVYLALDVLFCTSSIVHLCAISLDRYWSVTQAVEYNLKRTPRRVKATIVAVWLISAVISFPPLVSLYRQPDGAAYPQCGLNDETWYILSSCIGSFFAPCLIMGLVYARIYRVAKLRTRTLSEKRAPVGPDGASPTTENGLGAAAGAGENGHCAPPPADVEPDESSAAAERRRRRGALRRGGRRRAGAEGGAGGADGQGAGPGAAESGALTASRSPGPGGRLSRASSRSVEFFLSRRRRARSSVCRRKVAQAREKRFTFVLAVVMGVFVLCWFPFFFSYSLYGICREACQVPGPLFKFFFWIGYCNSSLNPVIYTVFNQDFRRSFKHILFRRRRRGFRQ
# protocol notes: Displacement of [3H]Clonidine from human recombinant adrenergic alpha2C receptor expressed in MDCK cells after 1 to […] by scintillation counting analysis
assay readout: Ki

>  <compound>
CC(N)Cc1c[nH]c2ccccc12 (stereo unspecified)

>  <tgt>
Alpha-2C adrenergic receptor (Homo sapiens, UniProt P18825)

>  <assay readout>
Ki

>  <recorded measurement>
> 10 µM

$$$$

---

# tgt: UniProt:P50406
# Sequence (P50406 whole entry): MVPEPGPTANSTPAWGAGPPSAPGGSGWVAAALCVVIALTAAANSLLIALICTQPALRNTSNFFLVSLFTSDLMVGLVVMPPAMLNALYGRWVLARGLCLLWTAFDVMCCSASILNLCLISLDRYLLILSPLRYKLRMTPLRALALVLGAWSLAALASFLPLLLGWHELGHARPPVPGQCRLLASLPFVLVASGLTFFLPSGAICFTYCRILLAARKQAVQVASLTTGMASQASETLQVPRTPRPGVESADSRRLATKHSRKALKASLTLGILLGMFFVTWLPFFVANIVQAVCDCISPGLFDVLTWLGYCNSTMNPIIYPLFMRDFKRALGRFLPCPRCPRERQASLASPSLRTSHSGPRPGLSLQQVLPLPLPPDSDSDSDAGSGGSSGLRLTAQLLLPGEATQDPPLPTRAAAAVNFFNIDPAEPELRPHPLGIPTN
# protocol notes: Displacement of [3H]LSD from human recombinant 5-HT6 receptor expressed in HEK293 cells after 1 to […] by scintillation counting analysis
pKi: −log10 of the molar value.
assay readout: pKi

>  <molecule>
CC(N)Cc1c[nH]c2ccccc12 (configuration not stated)

>  <assay readout>
pKi

>  <recorded measurement>
6.04

$$$$
>  <molecule>
C=CCN(CC=C)CCc1c[nH]c2ccc(OC)cc12

>  <assay readout>
pKi

>  <recorded measurement>
7.08

$$$$

---

# tgt: 5-hydroxytryptamine receptor 1B (Homo sapiens, UniProt P28222)
# Sequence (P28222 whole entry): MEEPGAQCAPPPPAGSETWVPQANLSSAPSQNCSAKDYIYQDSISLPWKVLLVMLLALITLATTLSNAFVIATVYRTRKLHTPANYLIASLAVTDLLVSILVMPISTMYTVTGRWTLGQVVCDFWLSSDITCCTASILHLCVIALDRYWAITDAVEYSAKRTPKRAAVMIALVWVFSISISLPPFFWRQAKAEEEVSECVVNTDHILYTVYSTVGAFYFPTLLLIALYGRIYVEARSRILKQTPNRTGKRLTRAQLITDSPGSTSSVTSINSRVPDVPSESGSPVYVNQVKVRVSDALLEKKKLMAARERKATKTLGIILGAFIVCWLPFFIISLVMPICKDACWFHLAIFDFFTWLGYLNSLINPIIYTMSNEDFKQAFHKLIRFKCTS
# protocol notes: Displacement of [3H][…] from human recombinant 5-HT1B receptor expressed in HEK293 cells after 1 to […] by scintillation counting analysis
# Assay type: cell-based
pKi: −log10 of the molar value.

>  <compound>
CC(N)Cc1c[nH]c2ccccc12 (stereo unspecified)

>  <tgt>
5-hydroxytryptamine receptor 1B (Homo sapiens, UniProt P28222)

>  <pKi>
6.25

$$$$

---

# tgt: Alpha-2A adrenergic receptor (Homo sapiens, UniProt P08913)
# Sequence (P08913 whole entry): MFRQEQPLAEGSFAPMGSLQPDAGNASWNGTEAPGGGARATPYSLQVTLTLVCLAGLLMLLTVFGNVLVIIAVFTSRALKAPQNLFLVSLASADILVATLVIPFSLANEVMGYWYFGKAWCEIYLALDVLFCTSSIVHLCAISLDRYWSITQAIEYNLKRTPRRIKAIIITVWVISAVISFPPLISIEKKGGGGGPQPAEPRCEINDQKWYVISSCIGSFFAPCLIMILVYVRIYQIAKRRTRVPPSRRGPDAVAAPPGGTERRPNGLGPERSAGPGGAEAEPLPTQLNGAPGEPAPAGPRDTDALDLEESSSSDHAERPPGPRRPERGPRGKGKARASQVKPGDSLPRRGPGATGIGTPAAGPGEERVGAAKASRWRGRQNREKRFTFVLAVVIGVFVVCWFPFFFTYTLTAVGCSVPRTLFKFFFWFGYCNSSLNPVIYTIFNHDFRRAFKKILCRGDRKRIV
# protocol notes: Displacement of [3H]Clonidine from human recombinant adrenergic alpha2A receptor expressed in MDCK cells after 1 to […] by scintillation counting analysis
# Assay type: cell-based
# condition notes: read-out: Ki
pKi: −log10 of the molar value.
assay readout: pKi

>  <compound>
CC(N)Cc1c[nH]c2ccccc12 (stereo unspecified)

>  <recorded measurement>
6.20

$$$$

---

# tgt: UniProt P35367
# Sequence (P35367 whole entry): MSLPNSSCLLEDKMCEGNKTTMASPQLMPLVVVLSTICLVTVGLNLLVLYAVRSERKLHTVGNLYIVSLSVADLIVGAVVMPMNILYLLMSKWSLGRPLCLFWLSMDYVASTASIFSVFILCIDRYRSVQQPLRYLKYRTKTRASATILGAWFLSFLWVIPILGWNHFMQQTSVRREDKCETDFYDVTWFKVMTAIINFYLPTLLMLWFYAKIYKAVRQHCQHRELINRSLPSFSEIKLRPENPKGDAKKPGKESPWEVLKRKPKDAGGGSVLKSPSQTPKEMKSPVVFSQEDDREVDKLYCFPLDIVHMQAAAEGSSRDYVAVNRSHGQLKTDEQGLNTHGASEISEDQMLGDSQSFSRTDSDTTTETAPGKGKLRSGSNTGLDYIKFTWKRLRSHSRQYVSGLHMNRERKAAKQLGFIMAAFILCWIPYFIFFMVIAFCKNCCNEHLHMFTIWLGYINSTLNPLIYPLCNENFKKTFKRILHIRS
# protocol notes: Displacement of [3H]Pyrilamine from human recombinant histamine H1 receptor expressed in HEK293 cells after 1 to […] by scintillation counting analysis
# Assay type: cell-based
# condition notes: read-out: Ki
assay readout: Ki (nM)

>  <chemical string>
C=CCN(CC=C)CCc1c[nH]c2ccc(OC)cc12

>  <tgt>
UniProt P35367

>  <recorded measurement>
936

$$$$

---

# Ki per entry
# tgt: Histamine H4 receptor (Homo sapiens, UniProt Q9H3N8)
# Sequence (Q9H3N8 whole entry): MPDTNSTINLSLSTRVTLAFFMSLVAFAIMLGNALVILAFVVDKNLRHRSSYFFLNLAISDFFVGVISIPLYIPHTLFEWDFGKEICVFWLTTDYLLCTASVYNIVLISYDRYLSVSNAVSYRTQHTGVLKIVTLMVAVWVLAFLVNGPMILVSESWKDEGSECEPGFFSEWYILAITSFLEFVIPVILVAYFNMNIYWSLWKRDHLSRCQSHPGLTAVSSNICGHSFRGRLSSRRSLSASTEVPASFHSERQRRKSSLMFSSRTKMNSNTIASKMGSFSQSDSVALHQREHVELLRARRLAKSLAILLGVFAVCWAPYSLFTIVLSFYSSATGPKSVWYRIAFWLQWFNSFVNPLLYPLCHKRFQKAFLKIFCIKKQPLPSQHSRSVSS
# protocol notes: Displacement of [3H]Histamine from human recombinant histamine H4 receptor expressed in HEK293 cells after 1 to […] by scintillation counting analysis

>  <compound>
CC(N)Cc1c[nH]c2ccccc12 (configuration not stated)

>  <Ki>
> 10 µM

$$$$
>  <compound>
C=CCN(CC=C)CCc1c[nH]c2ccc(OC)cc12

>  <Ki>
> 10 µM

$$$$
